Molecular target: human BChE (Homo sapiens)
Construct: gift of Dr. F. Nachon (Département de Toxicologie, Armed Forces Biomedical Research Institute, France)
Sequence (P06276 29-602): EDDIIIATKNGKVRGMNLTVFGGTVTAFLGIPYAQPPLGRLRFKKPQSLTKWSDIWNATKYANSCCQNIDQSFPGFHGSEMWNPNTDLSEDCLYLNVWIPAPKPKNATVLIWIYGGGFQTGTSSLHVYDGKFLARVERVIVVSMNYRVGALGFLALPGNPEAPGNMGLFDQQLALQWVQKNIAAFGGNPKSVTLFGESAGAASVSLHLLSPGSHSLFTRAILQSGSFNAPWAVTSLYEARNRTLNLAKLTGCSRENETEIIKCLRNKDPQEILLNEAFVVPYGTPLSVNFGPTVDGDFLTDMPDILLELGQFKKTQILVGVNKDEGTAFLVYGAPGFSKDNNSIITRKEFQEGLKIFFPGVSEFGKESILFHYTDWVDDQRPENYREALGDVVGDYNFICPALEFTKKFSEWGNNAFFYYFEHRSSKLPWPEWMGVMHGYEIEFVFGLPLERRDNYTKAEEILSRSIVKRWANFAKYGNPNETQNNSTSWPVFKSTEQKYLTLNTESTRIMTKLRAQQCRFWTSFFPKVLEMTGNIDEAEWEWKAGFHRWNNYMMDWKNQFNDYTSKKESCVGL
Test: Reversible inhibition of human BChE, Ellman method with ATCh, Hunter-Downs analysis
Format: biochemical
Parameters: key: c, n and m stands for competitive, noncompetitive and mixed type of inhibition; c, n and m stands for competitive, noncompetitive and mixed type of inhibition; c, n and m stands for competitive, noncompetitive and mixed type of inhibition
Settings: symbol in brackets after Ki
outcome.measure: BChE type of inhibition

Use the examples below as a reference point.
molecule	system	BChE type of inhibition
C=CC1C[N+]2(Cc3cccc([N+](=O)[O-])c3)CCC1CC2C(O)c1ccnc2ccccc12 (stereo not drawn) [CN-(mNO2)]	human BChE (Homo sapiens)	m
C=CC1C[N+]2(Cc3ccc(C)cc3)CCC1CC2C(O)c1ccnc2ccccc12 (stereo not drawn) [CN-(pCH3), N-(4-methylbenzyl) cinchoninium bromide]	human BChE (Homo sapiens)	c
C=CC1C[N+]2(Cc3cccc(C)c3)CCC1CC2C(O)c1ccnc2ccccc12 (stereo not drawn) [CD-(mCH3)]	human BChE (Homo sapiens)	m
C=C[C@H]1CN2CC[C@H]1C[C@H]2[C@H](O)c1ccnc2ccccc12 [CD, cinchonidine, reference compound]	human BChE (Homo sapiens)	c
C=CC1C[N+]2(Cc3ccc(Cl)cc3)CCC1CC2C(O)c1ccnc2ccccc12 (stereo not drawn) [CD-(pCl)]	human BChE (Homo sapiens)	c

Would you kindly look at the next entry?
Qu. Entry C=CC1C[N+]2(Cc3cccc(Cl)c3)CCC1CC2C(O)c1ccnc2ccccc12 (stereo not drawn) [CN-(mCl)] has what BChE type of inhibition?
Ans. m

* * *

Molecular target: human AChE (Homo sapiens, UniProt P22303)
Construct: gift of Dr. F. Nachon (Département de Toxicologie, Armed Forces Biomedical Research Institute, France)
Sequence (P22303 32-614): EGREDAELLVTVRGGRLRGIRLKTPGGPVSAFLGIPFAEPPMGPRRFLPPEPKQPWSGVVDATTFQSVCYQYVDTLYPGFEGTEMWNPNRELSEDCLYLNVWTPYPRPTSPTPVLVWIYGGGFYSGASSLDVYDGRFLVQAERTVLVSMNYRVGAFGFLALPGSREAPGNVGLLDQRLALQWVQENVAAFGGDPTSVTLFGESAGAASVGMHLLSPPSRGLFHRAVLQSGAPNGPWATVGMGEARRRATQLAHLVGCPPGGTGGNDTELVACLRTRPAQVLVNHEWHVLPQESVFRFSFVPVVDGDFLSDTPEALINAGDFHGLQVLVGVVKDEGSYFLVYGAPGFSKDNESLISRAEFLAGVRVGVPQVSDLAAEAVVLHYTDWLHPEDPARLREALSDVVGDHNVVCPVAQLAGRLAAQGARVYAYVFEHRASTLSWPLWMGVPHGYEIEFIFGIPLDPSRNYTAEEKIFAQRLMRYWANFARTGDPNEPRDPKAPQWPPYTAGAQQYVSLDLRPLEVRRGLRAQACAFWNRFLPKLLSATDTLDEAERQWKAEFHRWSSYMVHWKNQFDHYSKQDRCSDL
Test: Reversible inhibition of human AChE, Ellman method with ATCh, Hunter-Downs analysis
Assay type: biochemical
Parameters: key: c, n and m stands for competitive, noncompetitive and mixed type of inhibition; c, n and m stands for competitive, noncompetitive and mixed type of inhibition; c, n and m stands for competitive, noncompetitive and mixed type of inhibition
Conditions: symbol in brackets after Ki
outcome.measure: AChE type of inhibition

The examples below pair each entry with its known result.
compound	system	measured.result
C=CC1C[N+]2(Cc3ccc(C)cc3)CCC1CC2C(O)c1ccnc2ccccc12 (stereo not drawn) [CN-(pCH3), N-(4-methylbenzyl) cinchoninium bromide]	human AChE (Homo sapiens, UniProt P22303)	c
C=CC1C[N+]2(Cc3ccccc3)CCC1CC2C(O)c1ccnc2ccccc12 (stereo not drawn) [CN-Bzl]	human AChE (Homo sapiens, UniProt P22303)	m
C=CC1C[N+]2(Cc3ccc([N+](=O)[O-])cc3)CCC1CC2C(O)c1ccnc2ccccc12 (stereo not drawn) [CN-(pNO2)]	human AChE (Homo sapiens, UniProt P22303)	n
C=CC1C[N+]2(Cc3cccc(Cl)c3)CCC1CC2C(O)c1ccnc2ccccc12 (stereo not drawn) [CN-(mCl)]	human AChE (Homo sapiens, UniProt P22303)	c
C=CC1C[N+]2(Cc3cccc(Br)c3)CCC1CC2C(O)c1ccnc2ccccc12 (stereo not drawn) [CD-(mBr), N-(3-bromobenzyl) cinchonidinium bromide]	human AChE (Homo sapiens, UniProt P22303)	m

Qu. For C=CC1C[N+]2(Cc3cccc([N+](=O)[O-])c3)CCC1CC2C(O)c1ccnc2ccccc12 (stereo not drawn) [CN-(mNO2)] , what is its reported AChE type of inhibition?
Ans. m

Qu. Any idea what its AChE type of inhibition is? The compound is C=CC1C[N+]2(C)CCC1CC2C(O)c1ccnc2ccccc12 (stereo not drawn) [CD-Met]
Ans. c
